target.or.system: T1, human B7-H4 (purified monomeric recombinant human protein, ACRO biosystems) (human, UniProt Q7Z7D3 29-258, limits assumed, chemically biotinylated (EZ-Link NHS-LC-Biotin) in the yeast display and competition experiments; non-biotinylated in SPR)
T1 construct: Bought recombinant monomeric protein; also called B7x; B7S1
T1 sequence: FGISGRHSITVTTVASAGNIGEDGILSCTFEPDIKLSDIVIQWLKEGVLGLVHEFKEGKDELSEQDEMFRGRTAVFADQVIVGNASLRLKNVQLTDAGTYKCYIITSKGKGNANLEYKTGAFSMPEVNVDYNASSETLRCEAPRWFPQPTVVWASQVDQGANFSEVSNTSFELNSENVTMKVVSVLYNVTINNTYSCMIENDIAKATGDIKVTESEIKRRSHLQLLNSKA
test.details: SPR (Carterra LSA); scFv-Fc captured on anti-human IgG Fc, antigen injected
Recorded koff for the following binders
Numbers only; they are read as s⁻¹.

binder	quantity.name	readout.value
A08 scFv-Fc (scFv, V domains shown, Tested as scFv-Fc fusion (human IgG1 Fc, vector pDNL9) in crude yeast supernatant; Combo 2 library) VH: EVQLVESGGGVVQPGRSLRLSCAASGFTFGDRAMNWVRQAPGKGLEWVSAISSSGTTSYYADSVKGRFTISRDNSKNTLYLQMNSLRAEDTAVYYCARKRWYGMDVWGQGTTVTVSS VL: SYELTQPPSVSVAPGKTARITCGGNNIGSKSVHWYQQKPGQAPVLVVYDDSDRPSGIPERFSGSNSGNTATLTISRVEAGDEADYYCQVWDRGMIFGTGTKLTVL	koff	1.3e-05
A10 scFv-Fc (scFv, V domains shown, Tested as scFv-Fc fusion (human IgG1 Fc, vector pDNL9) in crude yeast supernatant; Combo 2 library) VH: EVQLVESGGGVVQPGRSLRLSCAASGFTFSSRSMNWVRQAPGKGLEWVSAISGTGYTTYYADSVKGRFTISRDNSKNTLYLQMNSLRAEDTAVYYCARKRWYGMDVWGQGTTVTVSS VL: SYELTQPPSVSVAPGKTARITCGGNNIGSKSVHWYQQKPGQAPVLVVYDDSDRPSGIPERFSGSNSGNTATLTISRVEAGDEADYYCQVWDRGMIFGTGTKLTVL	koff	1.4e-05
B06 scFv-Fc (scFv, V domains shown, Tested as scFv-Fc fusion (human IgG1 Fc, vector pDNL9) in crude yeast supernatant; Combo 1 library) VH: EVQLVESGGGVVQPGRSLRLSCAASGFTFSNKAMNWVRQAPGKGLEWVSAISGSGATTYYADSVKGRFTISRDNSKNTLYLQMNSLRAEDTAVYYCARKRWYGMDVWGQGTTVTVSS VL: SYELTQPPSVSVAPGKTARITCGGNNIGVKAVHWYQQKPGQAPVLVVYDDSDRPSGIPERFSGSNSGNTATLTISRVEAGDEADYYCQVWDRGMIFGTGTKLTVL	koff	1.7e-05

Attention now shifts to the item below.
Asked: Fill in: koff of B08 scFv-Fc (scFv, V domains shown, Tested as scFv-Fc fusion (human IgG1 Fc, vector pDNL9) in crude yeast supernatant; Combo 2 library) VH: EVQLVESGGGVVQPGRSLRLSCAASGFTFSDRAMNWVRQAPGKGLEWVSAISASGASRYYADSVKGRFTISRDNSKNTLYLQMNSLRAEDTAVYYCARKRWYGMDVWGQGTTVTVSS VL: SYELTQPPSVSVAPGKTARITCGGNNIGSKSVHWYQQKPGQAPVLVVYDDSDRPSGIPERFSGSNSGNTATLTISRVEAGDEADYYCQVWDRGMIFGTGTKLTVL is ___
Given back: 1.8e-05

All values here come from patent US20240309095A1.
